# Test system: Candida albicans
# procedureSummary: Induction of apoptosis in Candida albicans SC5314 protoplasts assessed as late apoptotic cells at 1/2 MIC measured after 3 hrs by Annexin V-FITC/propidium iodide staining based flow cytometry (reference value: 0.06 +/- 0.01 %)
# Format: functional
# label = rule met if Activity < 40% else rule not met

smilesRepresentation	assignedClass
CCOc1ccc(/C=N/NC(=O)Cn2nnc(/C=C/c3ccccc3)n2)cc1	rule met
O=C(Cn1nnc(/C=C/c2ccccc2)n1)N/N=C/c1ccccc1[N+](=O)[O-]	rule met
O=C(Cn1nnc(/C=C/c2ccccc2)n1)N/N=C/c1cccc([N+](=O)[O-])c1	rule not met
O=C(Cn1nnc(/C=C/c2ccccc2)n1)N/N=C/c1ccc([N+](=O)[O-])cc1	rule not met
COc1ccc(/C=N/NC(=O)Cn2nnc(/C=C/c3ccccc3)n2)cc1	rule met
COc1ccc(/C=N/NC(=O)Cn2nnc(/C=C/c3ccccc3)n2)cc1OC	rule met

Okay, next one:
**Query** Please determine if Cc1ccc(/C=N/NC(=O)Cn2nnc(/C=C/c3ccccc3)n2)cc1 is below 40% in terms of Activity.
**Result** rule met

====

# System: Candida albicans
# procedureSummary: Fungicidal activity against fluconazole-resistant Candida albicans assessed as growth inhibition by sub-culturing on Agar plate and incubated for 24 to 48 hrs
# Format: functional
Recorded MFC by entry
Reply with just the number (in µg/mL).

Below are worked cases with known answers.
smilesRepresentation	unitAnnotation	MFC
COc1ccc(/C=N/NC(=O)Cn2nnc(/C=C/c3ccccc3)n2)cc1OC	µg/mL	8
COc1ccc(/C=N/NC(=O)Cn2nnc(/C=C/c3ccccc3)n2)cc1	µg/mL	16
Cc1ccc(/C=N/NC(=O)Cn2nnc(/C=C/c3ccccc3)n2)cc1	µg/mL	16
CCOc1ccc(/C=N/NC(=O)Cn2nnc(/C=C/c3ccccc3)n2)cc1	µg/mL	8

**Query** # query: MFC of entry O=C(Cn1nnc(/C=C/c2ccccc2)n1)N/N=C/c1ccc([N+](=O)[O-])cc1
**Result** 1

====

# Test system: Candida albicans
# procedureSummary: Induction of apoptosis in Candida albicans SC5314 protoplasts assessed as early apoptotic cells at 1/2 MIC measured after 3 hrs by Annexin V-FITC/propidium iodide staining based flow cytometry (reference value: 3.47 +/- 0.26 %)
# Format: functional
Strictly below 10% in Activity: y. Otherwise: n.

smilesRepresentation	assignedClass
CCOc1ccc(/C=N/NC(=O)Cn2nnc(/C=C/c3ccccc3)n2)cc1	n
COc1ccc(/C=N/NC(=O)Cn2nnc(/C=C/c3ccccc3)n2)cc1	n
O=C(Cn1nnc(/C=C/c2ccccc2)n1)N/N=C/c1cccc([N+](=O)[O-])c1	y
O=C(Cn1nnc(/C=C/c2ccccc2)n1)N/N=C/c1ccccc1[N+](=O)[O-]	n
COc1ccc(/C=N/NC(=O)Cn2nnc(/C=C/c3ccccc3)n2)cc1OC	y

Continue with the next compound.
**Query** Identify whether the compound O=C(Cn1nnc(/C=C/c2ccccc2)n1)N/N=C/c1ccc([N+](=O)[O-])cc1 records Activity below 10%.
**Result** y

====

# Test system: Candida albicans
# procedureSummary: Antifungal activity against fluconazole-susceptible Candida albicans assessed as growth inhibition measured after 24 hrs by CLSI protocol based broth microdilution method
# Type: functional
Reported values of log10(MIC) for individual entries
Answers are given as log10 of MIC in mg/L.

Examples with answers:
compound	quantityMeasured	value
COc1ccc(/C=N/NC(=O)Cn2nnc(/C=C/c3ccccc3)n2)cc1OC	log10(MIC)	0.30
COc1ccc(/C=N/NC(=O)Cn2nnc(/C=C/c3ccccc3)n2)cc1	log10(MIC)	0.90
OC(Cn1cncn1)(Cn1cncn1)c1ccc(F)cc1F [FLUCONAZOLE]	log10(MIC)	-0.60
O=C(Cn1nnc(/C=C/c2ccccc2)n1)N/N=C/c1ccccc1Cl	log10(MIC)	1.81
O=C(Cn1nnc(/C=C/c2ccccc2)n1)N/N=C/c1ccccc1[N+](=O)[O-]	log10(MIC)	-0.30
O=C(Cn1nnc(/C=C/c2ccccc2)n1)N/N=C/c1cccc([N+](=O)[O-])c1	log10(MIC)	-0.60
O=C(Cn1nnc(/C=C/c2ccccc2)n1)N/N=C/c1ccccc1	log10(MIC)	2.10
O=C(Cn1nnc(/C=C/c2ccccc2)n1)N/N=C/c1ccc([N+](=O)[O-])cc1	log10(MIC)	-0.90
CCOc1ccc(/C=N/NC(=O)Cn2nnc(/C=C/c3ccccc3)n2)cc1	log10(MIC)	0.60
O=C(Cn1nnc(/C=C/c2ccccc2)n1)N/N=C/c1ccc(Cl)cc1	log10(MIC)	1.81

**Query** For the compound Cc1ccc(/C=N/NC(=O)Cn2nnc(/C=C/c3ccccc3)n2)cc1 , what log10(MIC) is on record?
**Result** 1.20
